System: L02
Test: Cytotoxicity against human L02 cells assessed as growth inhibition incubated for 68 hrs by MTT assay
Type: cell-based
Details: L02, 68 h
Numbered stars: 1 amine (or outer) side, 2 acyl side, 3 side chain; on linkers, the order of the positions; unused ones are H or OH. Bridge positions count the residues as written; N and C are the ends. Square brackets hold non-standard residues; d marks the D form. Peptide text beside a SMILES is read from it. I, II: the chains in the order shown. Actinocin(1to9) = Cc1c2oc3c(C)ccc(C(=O)[*:2])c3nc-2c(C(=O)[*:1])c(N)c1=O; NMeV = CN[C@H](C(=O)O)C(C)C; Sar = CNCC(=O)O
parameter.measured: IC50 (µM)

[[record]]
compound = "CC(C)[C@H]1C(=O)O[C@H](C)[C@H](NC(=O)c2c3nc4c(C(=O)N[C@@H]5C(=O)N[C@H](C(C)C)C(=O)N6CCC[C@H]6C(=O)N(C)CC(=O)N(C)[C@@H](C(C)C)C(=O)O[C@@H]5C)ccc(F)c4oc-3c(F)c(=O)c2N)C(=O)N[C@H](C(C)C)C(=O)N2CCC[C@H]2C(=O)N(C)CC(=O)N1C"
target_or_test_system = "L02"
comparison_operator = ">"
value_observed = 50

[[record]]
compound = "Cc1c2oc3c(C)ccc(C(=O)N[C@@H]4C(=O)N[C@H](C(C)C)C(=O)N5CCC[C@H]5C(=O)N(C)CC(=O)N(C)[C@@H](C(C)C)C(=O)O[C@@H]4C)c3nc-2c(C(=O)N[C@@H]2C(=O)N[C@H](C(C)C)C(=O)N3CCC[C@H]3C(=O)N(C)CC(=O)N(C)[C@@H](C(C)C)C(=O)O[C@@H]2C)c(N)c1=O [DACTINOMYCIN] (I: T[dV]P[Sar][NMeV] / II: T[dV]P[Sar][NMeV]; ester I:1-I:C, II:1-II:C; linker I:N-II:N via Actinocin(1to9))"
target_or_test_system = "L02"
comparison_operator = "="
value_observed = 0.5


###

Quick list: MIC per entry.
System: Staphylococcus aureus
Experiment: Antimicrobial activity against Staphylococcus aureus Sau 16162 assessed as inhibition of bacterial growth incubated for 16 to 18 hrs by broth micro dilution technique
Format: functional
Conditions: time 16-18 hrs
Numbered stars: 1 amine (or outer) side, 2 acyl side, 3 side chain; on linkers, the order of the positions; unused ones are H or OH. Bridge positions count the residues as written; N and C are the ends. Square brackets hold non-standard residues; d marks the D form. Peptide text beside a SMILES is read from it. I, II: the chains in the order shown. Actinocin(1to9) = Cc1c2oc3c(C)ccc(C(=O)[*:2])c3nc-2c(C(=O)[*:1])c(N)c1=O; NMeV = CN[C@H](C(=O)O)C(C)C; Sar = CNCC(=O)O
parameter.measured: MIC (µg/mL)

[[record]]
molecule = "CC(C)[C@H]1C(=O)O[C@H](C)[C@H](NC(=O)c2c3nc4c(C(=O)N[C@@H]5C(=O)N[C@H](C(C)C)C(=O)N6CCC[C@H]6C(=O)N(C)CC(=O)N(C)[C@@H](C(C)C)C(=O)O[C@@H]5C)ccc(Cl)c4oc-3c(Cl)c(=O)c2N)C(=O)N[C@H](C(C)C)C(=O)N2CCC[C@H]2C(=O)N(C)CC(=O)N1C"
target_or_test_system = "Staphylococcus aureus"
parameter_measured = "MIC"
unit_string = "µg/mL"
value_observed = 16

[[record]]
molecule = "COc1c2oc3c(OC)ccc(C(=O)N[C@@H]4C(=O)N[C@H](C(C)C)C(=O)N5CCC[C@H]5C(=O)N(C)CC(=O)N(C)[C@@H](C(C)C)C(=O)O[C@@H]4C)c3nc-2c(C(=O)N[C@@H]2C(=O)N[C@H](C(C)C)C(=O)N3CCC[C@H]3C(=O)N(C)CC(=O)N(C)[C@@H](C(C)C)C(=O)O[C@@H]2C)c(N)c1=O"
target_or_test_system = "Staphylococcus aureus"
parameter_measured = "MIC"
unit_string = "µg/mL"
value_observed = 8

[[record]]
molecule = "CC(C)[C@H]1C(=O)O[C@H](C)[C@H](NC(=O)c2c3nc4c(C(=O)N[C@@H]5C(=O)N[C@H](C(C)C)C(=O)N6CCC[C@H]6C(=O)N(C)CC(=O)N(C)[C@@H](C(C)C)C(=O)O[C@@H]5C)ccc(F)c4oc-3c(F)c(=O)c2N)C(=O)N[C@H](C(C)C)C(=O)N2CCC[C@H]2C(=O)N(C)CC(=O)N1C"
target_or_test_system = "Staphylococcus aureus"
parameter_measured = "MIC"
unit_string = "µg/mL"
value_observed = 32

[[record]]
molecule = "CC(C)[C@H]1C(=O)O[C@H](C)[C@H](NC(=O)c2c3nc4c(C(=O)N[C@@H]5C(=O)N[C@H](C(C)C)C(=O)N6CCC[C@H]6C(=O)N(C)CC(=O)N(C)[C@@H](C(C)C)C(=O)O[C@@H]5C)ccc(Br)c4oc-3c(Br)c(=O)c2N)C(=O)N[C@H](C(C)C)C(=O)N2C[C@@H](O)C[C@H]2C(=O)N(C)CC(=O)N1C"
target_or_test_system = "Staphylococcus aureus"
parameter_measured = "MIC"
unit_string = "µg/mL"
value_observed = 16

[[record]]
molecule = "CC(C)[C@H]1C(=O)O[C@H](C)[C@H](NC(=O)c2c3nc4c(C(=O)N[C@@H]5C(=O)N[C@H](C(C)C)C(=O)N6CCC[C@H]6C(=O)N(C)CC(=O)N(C)[C@@H](C(C)C)C(=O)O[C@@H]5C)ccc(Br)c4oc-3c(Br)c(=O)c2N)C(=O)N[C@H](C(C)C)C(=O)N2CCC[C@H]2C(=O)N(C)CC(=O)N1C"
target_or_test_system = "Staphylococcus aureus"
parameter_measured = "MIC"
unit_string = "µg/mL"
value_observed = 16

[[record]]
molecule = "CC(C)[C@H]1C(=O)O[C@H](C)[C@H](NC(=O)c2c3nc4c(C(=O)N[C@@H]5C(=O)N[C@H](C(C)C)C(=O)N6CCC[C@H]6C(=O)N(C)CC(=O)N(C)[C@@H](C(C)C)C(=O)O[C@@H]5C)cccc4oc-3c(Cl)c(=O)c2N)C(=O)N[C@H](C(C)C)C(=O)N2CCC[C@H]2C(=O)N(C)CC(=O)N1C"
target_or_test_system = "Staphylococcus aureus"
parameter_measured = "MIC"
unit_string = "µg/mL"
value_observed = 32

[[record]]
molecule = "CC(C)[C@H]1C(=O)O[C@H](C)[C@H](NC(=O)c2c3nc4c(C(=O)N[C@@H]5C(=O)N[C@H](C(C)C)C(=O)N6CCC[C@H]6C(=O)N(C)CC(=O)N(C)[C@@H](C(C)C)C(=O)O[C@@H]5C)ccc(I)c4oc-3c(I)c(=O)c2N)C(=O)N[C@H](C(C)C)C(=O)N2CCC[C@H]2C(=O)N(C)CC(=O)N1C"
target_or_test_system = "Staphylococcus aureus"
parameter_measured = "MIC"
unit_string = "µg/mL"
value_observed = 4

[[record]]
molecule = "CC(C)[C@H]1C(=O)O[C@H](C)[C@H](NC(=O)c2c3nc4c(C(=O)N[C@@H]5C(=O)N[C@H](C(C)C)C(=O)N6CCC[C@H]6C(=O)N(C)CC(=O)N(C)[C@@H](C(C)C)C(=O)O[C@@H]5C)ccc(I)c4oc-3cc(=O)c2N)C(=O)N[C@H](C(C)C)C(=O)N2CCC[C@H]2C(=O)N(C)CC(=O)N1C"
target_or_test_system = "Staphylococcus aureus"
parameter_measured = "MIC"
unit_string = "µg/mL"
value_observed = 4

[[record]]
molecule = "CC1(C)S[C@@H]2[C@H](NC(=O)[C@H](N)c3ccccc3)C(=O)N2[C@H]1C(=O)O"
target_or_test_system = "Staphylococcus aureus"
parameter_measured = "MIC"
unit_string = "µg/mL"
value_observed = 64

[[record]]
molecule = "Cc1c2oc3c(C)ccc(C(=O)N[C@@H]4C(=O)N[C@H](C(C)C)C(=O)N5CCC[C@H]5C(=O)N(C)CC(=O)N(C)[C@@H](C(C)C)C(=O)O[C@@H]4C)c3nc-2c(C(=O)N[C@@H]2C(=O)N[C@H](C(C)C)C(=O)N3CCC[C@H]3C(=O)N(C)CC(=O)N(C)[C@@H](C(C)C)C(=O)O[C@@H]2C)c(N)c1=O [DACTINOMYCIN] (I: T[dV]P[Sar][NMeV] / II: T[dV]P[Sar][NMeV]; ester I:1-I:C, II:1-II:C; linker I:N-II:N via Actinocin(1to9))"
target_or_test_system = "Staphylococcus aureus"
parameter_measured = "MIC"
unit_string = "µg/mL"
value_observed = 1

[[record]]
molecule = "CN[C@H](CC(C)C)C(=O)N[C@H]1C(=O)N[C@@H](CC(N)=O)C(=O)N[C@H]2C(=O)N[C@H]3C(=O)N[C@H](C(=O)N[C@H](C(=O)O)c4cc(O)cc(O)c4-c4cc3ccc4O)[C@H](O)c3ccc(c(Cl)c3)Oc3cc2cc(c3O[C@@H]2O[C@H](CO)[C@@H](O)[C@H](O)[C@H]2O[C@H]2C[C@](C)(N)[C@H](O)[C@H](C)O2)Oc2ccc(cc2Cl)[C@H]1O"
target_or_test_system = "Staphylococcus aureus"
parameter_measured = "MIC"
unit_string = "µg/mL"
value_observed = 64

[[record]]
molecule = "CC(C)[C@H]1C(=O)O[C@H](C)[C@H](NC(=O)c2c3nc4c(C(=O)N[C@@H]5C(=O)N[C@H](C(C)C)C(=O)N6CCC[C@H]6C(=O)N(CO)CC(=O)N(C)[C@@H](C(C)C)C(=O)O[C@@H]5C)ccc(Br)c4oc-3c(Br)c(=O)c2N)C(=O)N[C@H](C(C)C)C(=O)N2CCC[C@H]2C(=O)N(C)CC(=O)N1C"
target_or_test_system = "Staphylococcus aureus"
parameter_measured = "MIC"
unit_string = "µg/mL"
value_observed = 32

[[record]]
molecule = "CC(C)[C@H]1C(=O)O[C@H](C)[C@H](NC(=O)c2c3nc4c(C(=O)N[C@@H]5C(=O)N[C@H](C(C)C)C(=O)N6CCC[C@H]6C(=O)N(C)CC(=O)N(C)[C@@H](C(C)C)C(=O)O[C@@H]5C)cccc4oc-3c(I)c(=O)c2N)C(=O)N[C@H](C(C)C)C(=O)N2CCC[C@H]2C(=O)N(C)CC(=O)N1C"
target_or_test_system = "Staphylococcus aureus"
parameter_measured = "MIC"
unit_string = "µg/mL"
value_observed = 8

